B1: USP39 (parent)
chain: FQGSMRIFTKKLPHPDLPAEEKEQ

- Variants of: B1
- testName: protein stability index of a GFP-peptide fusion (GPS, HEK-293T) (PSI 1-6); higher = more stable;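 further: lentivirally expressed fusions sorted by FACS into six bins by GFP to DsRed ratio, PSI derived from sequencing read proportions per bin multiplied by bin number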
- measurementParameters: c terminus: a fixed tail appended
resultType: protein stability index
Hey, just send me the number, nothing else.

sequenceText | resultType | reportedResult
FQGSMRIFTKKLPHPELPAEEKEQ [D16E] | protein stability index | 2.18
FQGSMRIFTKKLPPPDLPAEEKEQ [H14P] | protein stability index | 1.86
FQGSMRQFTKKLPHPDLPAEEKEQ [I7Q] | protein stability index | 3.65

Task: Return reported protein stability index; argument: FQGSMRIFTKKLPHPALPAEEKEQ [D16A]
Output: 1.7

Task: Now consider FQGSMRIFTKVLPHPDLPAEEKEQ [K11V] and answer again.
Output: 2

Task: Now consider FQGSMRIFTKKLPQPDLPAEEKEQ [H14Q] and answer again.
Output: 1.78
